system: SF-295 CNS; test: NCI tumour cell line growth inhibition, 48 h
Reported Metric: TGI

O=S(=O)(c1cnccc1N1CCN(CCO)CC1)N1CCCC1; > 100 µM
CC(=O)NNc1nc(C)c(C(=O)NNC(=O)C(=O)Nc2ccc(Cl)cc2Cl)s1; > 100 µM
CCN1CCN(C(=O)[C@]23CCC(C)(C)C[C@@H]2C2=CC[C@@H]4[C@@]5(C)C/C(=C/c6ccncc6)C(=O)C(C)(C)[C@@H]5CC[C@@]4(C)[C@]2(C)CC3)CC1; 2.76 µM
CC1C(c2ccc(Cl)cc2)c2cc3c(cc2OC1N1CCOCC1)OCO3 (stereo unspecified); > 100 µM
COc1ccccc1C[C@@H]1OC2(C=CC(=O)C=C2)O[C@H]1Cc1ccccc1OC; 22.9 µM
NC(=O)NC1C(C(N)=O)N(Cc2ccccc2)C(=O)N1Cc1ccccc1 (stereo unspecified); > 100 µM
c1ccc2c3c([nH]c2c1)C(c1ccc(C2NCCc4c2[nH]c2ccccc42)cc1)NCC3 (stereo unspecified); 3.33 µM
COc1ccc(C(OCC2OC(n3ccc(NC(=O)c4ccccc4)nc3=O)CC2OP2(=S)SCCS2)(c2ccccc2)c2ccc(OC)cc2)cc1 (stereo unspecified); 97.9 µM
C[Si](C)(C)C1=C([Si](C)(C)C)C(Cl)(Cl)C1=O; 22.3 µM
COc1cc2c(=O)[nH]c3cc([N+](=O)[O-])ccc3c2cc1[N+](=O)[O-]; > 100 µM
Cn1c(N/N=C/c2ccccc2)nc(-c2ccc([N+](=O)[O-])cc2)c(C#N)c1=O; > 100 µM
CC(=O)[CH-]C(=O)c1ccccc1.CC(=O)[CH-]C(=O)c1ccccc1.C[C@]12CCC(=O)C=C1CC[C@@H]1C2CC[C@@]2(C)C1CC[C@]2(C)[O-].C[C@]12CCC(=O)C=C1CC[C@@H]1C2CC[C@@]2(C)C1CC[C@]2(C)[O-].Cl.[Ti+4] (stereo partly specified); 57.3 µM
CCN(CC)c1ccc(/C=C/C=C2C(=O)NC(=S)NC2=O)cc1; > 100 µM
N#C/C(=C/NC(=S)c1ccncc1)C(N)=O; > 100 µM
Cc1ccccc1NC(=O)Cc1csc2[n+]1C(=O)/C(=C/c1ccc([N+](=O)[O-])cc1)S2; > 100 µM
CCCCCCC[CH2][Sn]1([CH2]CCCCCCC)[O]C(=O)c2cccnc2[O]1; > 100 µM
COc1cc(-c2ccccc2N)c2cccnc2c1OC; 7.18 µM
O=C(OCC(Cl)(Cl)Cl)O[C@@H]1CCCC1(c1ccccc1)c1ccccc1; > 100 µM
CN(Cc1cnc2nc(N)nc(N)c2n1)c1ccc(C(=O)NC(CCC(=O)O)C(=O)O)cc1Br (stereo unspecified); 0.201 µM
COc1cccc(/C=N/[N-]C(N)=O)c1[O-].[Cu+2].[OH3+].c1ccc(-c2ccccn2)nc1; > 100 µM
Cc1nc2c(=S)n(C)ncc2[nH]1; > 100 µM

---

TGI reference
system: OVCAR-3 ovarian; test: NCI tumour cell line growth inhibition, 48 h
Reported Metric: TGI

CCOC(=O)Cc1nc2c(N)ncnc2n1C1OC(COC(C)=O)C(OC(C)=O)C1OC(C)=O (centres undefined); > 100 µM
O=C1c2cn[nH]c2C(c2ccccc2)N1c1ccccc1 (centres undefined); > 10 µM
NC(Cc1ccc(S(=O)(=O)O)cc1)C(=O)NC(Cc1ccc(S(=O)(=O)O)cc1)C(=O)O (centres undefined); > 100 µM
CC(=O)O[C@H]1CC[C@@]2(C)C(=CC[C@@H]3C2CC[C@]2(C)Nc4nc5ccccc5cc4CC32)C1 (some centres undefined); 8.53 µM

---

system: MALME-3M melanoma; test: NCI tumour cell line growth inhibition, 48 h
Reported Metric: TGI

CCCCCCC[CH2][Sn]1([CH2]CCCCCCC)[O]C(=O)c2cccnc2[O]1; > 100 µM
Cn1c(-c2c(N)n(CCCN3CCOCC3)c3nc(C#N)c(C#N)nc23)nc2ccccc21; > 83.7 µM
O=C(CN1C(=O)S/C(=C\C(Cl)=C\c2ccccc2)C1=O)NC1C=CS(=O)(=O)C1 (stereo not given); 3.93 µM
CC1CC(=O)N(N(C)C)C(C#N)(C#N)C1(C#N)C#N (stereo not given); 29.3 µM
CCOC(=O)N(c1ccccc1)N(CC)C(=O)/C(C)=N/Nc1ccc([N+](=O)[O-])cc1; 33.5 µM
CCn1c(SCC(=O)NNC(=S)NC)nc2ccccc2c1=O; > 100 µM
O=C1c2ccccc2C(=O)c2c(OCCOCCO)cccc21; > 100 µM
O=P(O)(O)C1(P(=O)(O)O)CC1; > 100 µM
CCn1c(-c2nonc2N)nc2cncc(C(=O)N3CC[C@H](N)C3)c21; > 25 µM
C/C1=C\C=C(\C(C)C)CC/C(C(=O)O)=C\CC/C(C)=C/CC1; 52.2 µM
O=C1Nc2ccccc2/C1=c1\[nH]c(=O)/c(=C\c2ccc(OCc3ccccc3)cn2)[nH]c1=O; > 100 µM
O=C(Nc1nc2ccccc2s1)Nc1ccc([N+](=O)[O-])cc1Cl; 11.1 µM
CCc1nc2ccc(NCCN(C)C)c3c(=O)c4ccccc4n1c23; 7.47 µM
CCOc1ccc(NC(=O)CC2C(=O)Nc3ccccc3S2(=O)=O)cc1 (stereo not given); > 100 µM
CCCCCCCCCCCCCC[C@@H](O)[C@H]1CC[C@H]([C@H]2CC[C@H]([C@H](O)CCCCCC[C@@H](O)CC3=C[C@H](C)OC3=O)O2)O1; > 25 µM
CN(C)c1cccc(NC2=NCCO2)c1; > 100 µM
CC1=NC(=Cc2ccc([N+](=O)[O-])cc2)C(=O)N1n1c(-c2ccccc2)nc2ccccc2c1=O; > 100 µM
O=c1cnn(CCOCP(=O)(O)O)c(=O)[nH]1; > 100 µM
COC(=O)c1ccc(NC(=O)Oc2ccc(N(CCCl)CCCl)cc2)cc1; 71.1 µM
CC(=O)[CH-]C(=O)c1ccccc1.CC(=O)[CH-]C(=O)c1ccccc1.C[C@]12CCC(=O)C=C1CC[C@@H]1C2CC[C@@]2(C)C1CC[C@]2(C)[O-].C[C@]12CCC(=O)C=C1CC[C@@H]1C2CC[C@@]2(C)C1CC[C@]2(C)[O-].Cl.[Ti+4] (stereo not given in full); 37.1 µM
CC1=C(Nc2ccc(N3CCN(C)CC3)cc2)C(=O)c2cncnc2C1=O; 21.7 µM
CC(=O)N(O)c1ccc(-c2nc3ccccc3s2)cc1; 88.9 µM
NNC(=O)c1cc(=O)[nH][nH]1; > 100 µM
CCOC(=O)c1cnc2c(C)cccc2c1Nc1ccc(C(C)=O)cc1; > 100 µM
CCOc1cc(NC(C)=O)ccc1C(=O)NN1C(=O)CSC1c1ccccc1 (stereo not given); > 100 µM
CC(=O)c1c(C)[nH]c(-c2nc3ccc(N4CCN(C)CC4)cc3[nH]2)c1-c1ccccc1; 12.7 µM
Cc1cc(N2CCN(C)CC2)n2nc(-c3ccc(Cl)cc3)nc2n1; > 100 µM
C=CCc1cc(OC)c2c(c1)C(OC)CC(c1ccc(OC)c(OC)c1)O2 (stereo not given); > 100 µM
O=C(CCc1ccccc1)On1c(-c2ccccc2)nc2ccccc2c1=S; 22.6 µM
COc1ccc(/C=C/C2=NN(c3cccc(S(=O)(=O)O)c3)C3(C2)SCC(=O)N3c2nc3ccccc3s2)cc1 (stereo not given); > 100 µM
CN1C(=O)C2(c3ccccc31)N(c1ccc(Cl)cc1)C(=O)C2(c1ccccc1)c1ccccc1 (stereo not given); > 100 µM
CC1(C)CC(=O)C2=C(C1)OC1=C(CC(C)(C)CC1=O)C2c1ccccc1[N+](=O)[O-] (stereo not given); > 100 µM
CN(C)c1cc[n+](-c2nc(/N=C(\[O-])C(F)(F)F)nc3c2ncn3C2CC(O)C(CO)O2)cc1 (stereo not given); > 100 µM
O=c1[nH]cnc2c1nnn2CCCCCCCCCCCCn1nnc2c(=O)[nH]cnc21; > 100 µM
Cc1ccc2c(c1)C(=O)C(C1OC(=O)c3ccccc31)C2 (stereo not given); > 100 µM

---

tested on: HCT-15 colon; experiment: NCI tumour cell line growth inhibition, 48 h
Reported Metric: TGI

O=C1c2cn[nH]c2C(c2ccccc2)N1c1ccccc1 (stereo unspecified); > 10 µM
Cn1nc(-c2ccccc2)c2c(/C=C/c3ccccc3)onc2c1=O; > 100 µM
O=c1[nH]cnc2c1nnn2CCCCCCCCCCCCn1nnc2c(=O)[nH]cnc21; > 100 µM
COc1cc2nc(-c3cccs3)[nH]c(=O)c2cc1OC; > 100 µM
O=C1Nc2ccccc2/C1=c1\[nH]c(=O)/c(=C\c2ccc(OCc3ccccc3)cn2)[nH]c1=O; > 100 µM
CSC1NC(c2ccc(Cl)cc2)=C(C#N)C(=O)N1C1OCC(OC(C)=O)C(OC(C)=O)C1OC(C)=O (stereo unspecified); > 100 µM
